Could you please report measured normalized growth for the items listed next?
METHOD DESCRIPTION: chemical genetic growth profiling, strain panel (AID 1159580);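 also: tested at 20 µM; growth read once vehicle control cultures reached saturation at 30 °C; 1 = growth at the plate median or of vehicle wells; lower values mean less growth of the strain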
TEST SETTINGS: S. cerevisiae deletion strains, growth OD, locus YML120C, strain ndi1, stronger effect = lower value
In all, about 5,500 compounds went through this assay and about 2,000 (36%) were called active. Another 18% or so got no clear call; they are omitted. This is one part of the list. Where a SMILES comes first, the peptide text is derived from it. Side-chain parts run from the residue outwards. [ ]: non-standard residue; d: D form. The star is where a group is joined. X1 = CCC(C)C(N)C1=NC(C(=O)*)CS1; Orn = NCCC[CH](N)C(=O)O
API doc: respond with a numeric literal and nothing else, no unit.

Would you kindly share the measured normalized growth for CC(C)CC1NC(=O)C(CCCN)NC(=O)C(C(C)C)NC(=O)C2CCCN2C(=O)C(Cc2ccccc2)NC(=O)C(CC(C)C)NC(=O)C(CCCN)NC(=O)C(C(C)C)NC(=O)C2CCCN2C(=O)C(Cc2ccccc2)NC1=O (configuration not stated) (cyclo(FPV[Orn]LFPV[Orn]L); configuration not given here) ? 1.02

Would you kindly share the measured normalized growth for CNC(Cc1c[nH]c2ccccc12)C(=O)O (configuration not stated) ? 0.983

Would you kindly share the measured normalized growth for OCc1c[nH]c2ccccc12 ? 0.902

Would you kindly share the measured normalized growth for CCOc1ccc(C(=O)c2ccc(O)c(O)c2O)cc1 ? 0.928

Would you kindly share the measured normalized growth for CCC(C)C(N)C1=NC(C(=O)NC(CC(C)C)C(=O)NC(CCC(=O)O)C(=O)NC(C(=O)NCCCCC2NC(=O)C(CC(N)=O)NC(=O)C(CC(=O)O)NC(=O)C(Cc3cnc[nH]3)NC(=O)C(Cc3ccccc3)NC(=O)C(C(C)CC)NC(=O)C(CCCN)NC2=O)C(C)CC)CS1 (stereo not drawn) (cyclo(DNK([Ile-Glu-Leu-X1])[Orn]IFH); configuration not given here) ? 0.994

Would you kindly share the measured normalized growth for Cc1ccc(N(CC2=NCCN2)c2cccc(O)c2)cc1 ? 0.999

Would you kindly share the measured normalized growth for Cc1cc(C(C)(C)C)c(O)c(C)c1CC1=NCCN1 ? 1.01
